system: Cymbidium; experiment: Growth of Cymbidium flask seedlings in tissue culture; assay type: in vivo; settings: 0.005% in MS medium; non 0
The reader will find reported Number of lateral buds values listed item by item below.

Per the reported Cymbidium data, O=C(CO)[C@@H](O)[C@H](O)[C@H](O)CO [D-fructose, reference compound] has Number of lateral buds of 0 buds

The measured Number of lateral buds that O=C(CO)[C@H](O)[C@H](O)[C@H](O)CO [D-psicose] showed for Cymbidium is 0.5 buds

Observed Number of lateral buds on Cymbidium, entry O=C[C@H](O)[C@@H](O)[C@H](O)[C@H](O)CO [D-glucose, reference compound] , equals 0 buds

// returns Number of lateral buds for O=C[C@H](O)[C@H](O)[C@H](O)[C@H](O)CO [D-allose] with Cymbidium; value = 3.8 buds

---

system: Bletilla striata; assay: Growth and bulb formation of Bletilla striata seedlings in tissue culture; format: in vivo; settings: sugar 0.05% in medium
property: Bulb size (mm)
Only the number, expressed in mm, is required.

Take a look at these entries with their results.
O=C[C@H](O)[C@@H](O)[C@H](O)[C@H](O)CO [D-glucose, reference compound] | 5.2
O=C(CO)[C@@H](O)[C@H](O)[C@H](O)CO [D-fructose, reference compound] | 4.7
O=C(CO)[C@H](O)[C@H](O)[C@H](O)CO | 5.1

Please find the next molecule below.
Reported Bulb size ( O=C[C@H](O)[C@H](O)[C@H](O)[C@H](O)CO ) = 4.9

---

system: Brassica rapa var. amplexicaulis (variety: “Haru Ichiban”); test: Foliar spraying of sugar on Brassica rapa var. amplexicaulis; type: in vivo; settings: 0.5% solution sprayed; control (water) 32.3
With a cut-off of 40, any Number of lateral buds strictly below it is called Criterion met; any Number of lateral buds meeting it or above is called Criterion not met.

Consider the following illustrative entries.
O=C(CO)[C@@H](O)[C@H](O)[C@H](O)CO [D-fructose, reference compound] | Criterion not met
O=C[C@H](O)[C@@H](O)[C@H](O)[C@H](O)CO [D-glucose, reference compound] | Criterion met
O=C(CO)[C@H](O)[C@H](O)[C@H](O)CO [D-psicose] | Criterion not met
O=C[C@@H](O)[C@H](O)[C@H](O)[C@@H](O)CO [L-galactose] | Criterion not met

Now let's try a different one.
Strictly below 40: is that where Number of lateral buds of O=C[C@H](O)[C@H](O)[C@H](O)[C@H](O)CO [D-allose] sits? Criterion met

---

tested on: Cymbidium; assay: Growth of Cymbidium flask seedlings in tissue culture; type: in vivo; settings: 0.005% in MS medium; non 3.8
Below is a list of entries, each paired with its recorded Underground part weight value.
Field note: include the unit after the figure.

O=C[C@H](O)[C@H](O)[C@H](O)[C@H](O)CO | 4.0 g

Reported Underground part weight of O=C(CO)[C@@H](O)[C@H](O)[C@H](O)CO [D-fructose, reference compound] : 3.8 g

Measured Underground part weight, O=C[C@H](O)[C@@H](O)[C@H](O)[C@H](O)CO [D-glucose, reference compound] : 2.9 g

According to the records, this compound O=C(CO)[C@H](O)[C@H](O)[C@H](O)CO displays Underground part weight of 4.1 g

---

Aerial part weight: recorded values
test system: Bletilla striata; assay: Growth and bulb formation of Bletilla striata seedlings in tissue culture; type: in vivo; details: sugar 0.02% in medium
Supply the numeric figure in g, leaving out any unit text.

O=C[C@H](O)[C@H](O)[C@H](O)[C@H](O)CO | 0.19
O=C[C@H](O)[C@@H](O)[C@H](O)[C@H](O)CO [D-glucose, reference compound] | 0.20
O=C(CO)[C@@H](O)[C@H](O)[C@H](O)CO [D-fructose, reference compound] | 0.19

Now for a further compound.
Documented Aerial part weight of O=C(CO)[C@H](O)[C@H](O)[C@H](O)CO : 0.28
